assay.comment: Monkey cassette dosing pharmacokinetics
Type: in vivo
study.conditions: male, plasma, IV, read-out: Vss
measured.quantity: Vd (L/kg)

CC(C)N1CC(=O)N(Cc2ccc(F)c(Cl)c2)C2(CN(c3cccnn3)C2)C1=O [Compound 9]    1.88

[P] CC[C@H](C)N1CC(=O)N(Cc2ccc(F)c(F)c2)C2(CN(c3cccnn3)C2)C1=O [Compound 14]
[Q] CC(C)N1CC(=O)N(Cc2ccc(Cl)c(F)c2)C2(CN(c3cccnn3)C2)C1=O [Compound 8]
[R] C[C@H]1CC[C@H](N2CC(=O)N(Cc3ccc(F)c(F)c3)C3(CN(C(N)=O)C3)C2=O)CC1 [Compound 5]
[S] CC(C)N1CC(=O)N(Cc2ccc(C(F)(F)F)cc2)C2(CN(c3cccnn3)C2)C1=O [Compound 13]
Input: Number of compounds to sort: 4. Sort criterion: Vd, ascending. // rank by listing labels in the order requested
Output: P, S, Q, R
(P: 1.48 L/kg, S: 3.15 L/kg, Q: 4.76 L/kg, R: 10.2 L/kg)

[1] Cc1cc(CN2C(=O)CN([C@H]3CC[C@H](C)CC3)C(=O)C23CN(C(N)=O)C3)ccc1F [Compound 6]
[2] C[C@H]1CC[C@H](N2CC(=O)N(Cc3ccc(F)c(Cl)c3)C3(CN(C(N)=O)C3)C2=O)CC1 [Compound 7]
Input: // returns 1 or 2 , whichever has the lower Vd Choose, then provide that item's label.
Output: 1
(1: 6.29 L/kg, 2: 9.12 L/kg)

All values here come from patent US12286437B2.
